# tgt: norepinephrine transporter protein (Homo sapiens)
# Sequence (P23975 whole entry): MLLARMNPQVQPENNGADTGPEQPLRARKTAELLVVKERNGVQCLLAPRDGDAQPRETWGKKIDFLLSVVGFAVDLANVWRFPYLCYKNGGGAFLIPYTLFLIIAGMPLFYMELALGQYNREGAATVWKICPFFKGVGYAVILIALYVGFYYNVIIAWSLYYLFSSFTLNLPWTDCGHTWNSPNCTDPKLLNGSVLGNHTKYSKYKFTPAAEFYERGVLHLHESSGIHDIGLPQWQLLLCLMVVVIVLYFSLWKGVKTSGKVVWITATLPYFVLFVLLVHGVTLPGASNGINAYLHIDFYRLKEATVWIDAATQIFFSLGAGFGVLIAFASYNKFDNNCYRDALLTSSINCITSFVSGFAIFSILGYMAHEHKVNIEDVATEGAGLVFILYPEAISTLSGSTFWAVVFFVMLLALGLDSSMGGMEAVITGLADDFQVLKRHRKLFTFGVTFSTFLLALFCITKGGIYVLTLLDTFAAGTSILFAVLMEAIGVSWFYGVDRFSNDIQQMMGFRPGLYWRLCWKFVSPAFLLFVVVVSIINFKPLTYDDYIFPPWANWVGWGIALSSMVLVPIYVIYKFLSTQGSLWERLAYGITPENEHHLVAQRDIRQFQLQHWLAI
# test: [3H]norepinephrine uptake in HEK 293 cells expressing the transporter
# details: recombinant human norepinephrine transporter, 20 nM [3H]norepinephrine, read-out: inhibition of [3H]Norepinephrine uptake (IC50)
Structures can show the parent of a compound that is named as a salt.
experimental readout: IC50
Answer with the figure and its unit, nothing else.

Query block: Quick one: IC50 of Cc1ccc([C@]23CNC[C@H]2C3)cc1 (racemic) [Bicifadine HCl] ?
Result block: 0.0547 µM

###

# tgt: α2 adrenergic receptor
# test: α2 adrenergic receptor [3H]RX 821002 binding, rat cerebral cortex preparation
# details: read-out: Inhibition of radioligand binding, affinity (Ki), [3H]RX 821002 0.5 nM, 30 min at 22° C., hydrochloride
Structures can show the parent of a compound that is named as a salt.
experimental readout: pKi
Just the number, please; pKi means minus log10 of the concentration in mol/L.

Query block: Entry Cc1ccc([C@]23CNC[C@H]2C3)cc1 (racemic) [Bicifadine HCl] : reported pKi = ?
Result block: 6.21
